Entries and their Kd values follow.
Target: wt_RBD-AviHis (SARS-CoV-2 (original Wuhan strain))
Test: BLI (Octet), biotinylated RBD on streptavidin biosensors, VHH in solution

[[record]]
binder = "Re32F02 (VHH) VHH: QVQLVESGGGLVSPGGSLKLSCAASGLTLDYYGIGWFRQVPGKEREGVSCLGVPDNRTLYAPSVKGRFTISRDNAKNTYYLEMNSLNPEDSAVYYCAAGPVVPGHMCRIPTPLGYDYWGQGTLVTVSS"
result = "≤ 0.01 nM"


Kd for Re9B09 (VHH, also called ReB09) VHH: QVQLVESGGGLVQPGGSLRLSCAASGFTLDYYAIGWFRQAPGKEREGVSRISSSDGSTDYADSVKGRFTISRDNAKNTVYLQMNSLKPEDTAVYYCATVPGTYYSGNWYYTWHPEAVDYWGKGTQVTVSS ?
≤ 0.01 nM

Moving on to the next binder: Re6H06 (VHH) VHH: QVQLVESGGGLVQPGGSLRLSCAASGVTLDYYAIGWFRQAPGKEREGVSCTSSSDGSTYYADSVKGRFTISRDNAKNTVYLQMNSLKPEDTGVYYCAVVPQTYYGGKYYSQCTANGMDYWGKGTLVTVSS
≤ 0.01 nM
